Recorded values, source ChEMBL document CHEMBL3612038.

Let's look at some compounds and their measured Ratio.
system: Trichomonas vaginalis; assay: Resistance index, ratio of MIC for MTZ-resistant Trichomonas vaginalis to MIC for MTZ-susceptible Trichomonas vaginalis; format: functional
Measured Parameter: Ratio

Compound	Reported Value
CCCCNC(=S)N1CCN(CCC(=O)c2ccccc2)CC1	4
FC(F)(F)c1ccc(OC(CCN2CCN(C(=S)Nc3ccccc3)CC2)c2ccccc2)cc1 (stereo not given)	2
FC(F)(F)c1ccc(OC(CCN2CCN(C(=S)NCc3ccccc3)CC2)c2ccccc2)cc1 (stereo not given)	2
FC(F)(F)c1ccc(OC(CCN2CCN(C(=S)NC3CCCCC3)CC2)c2ccccc2)cc1 (stereo not given)	2
OC(CCN1CCN(C(=S)NC2CCCCC2)CC1)c1ccccc1 (stereo not given)	2

====

target: UniProt Q72547; test: Inhibition of HIV1 reverse transcriptase at 100 ug/ml incubated for 1 hr by ELISA method
Measured Parameter: inhibition (%)

Molecule	Reported Value
FC(F)(F)c1ccc(OC(CCN2CCN(C(=S)NCc3ccccc3)CC2)c2ccccc2)cc1 (stereo not drawn)	51
O=C(CCN1CCN(C(=S)Nc2ccccc2)CC1)c1ccccc1	49.2
O=C(CCN1CCN(C(=S)NCCc2ccccc2)CC1)c1ccccc1	50.2
